procedure-details: In vitro metabolic stability in human liver microsomes
Type: in vitro ADME
stated-conditions: Table S5, CLint/fu
quantity-measured: CLint_u (L/h/kg) Human

Solved entries (count: 3):
COc1ccc(C(=O)Cn2c(CCNC(=O)COc3ccc4ccccc4c3Br)nc3ccccc32)cc1 2,104.17 L/h/kg
CC(=O)NCCc1nc2ccccc2n1CCOc1ccccc1Br 9.97 L/h/kg
COc1cccc(C(=O)CCn2c(CCNC(=O)COc3ccc4ccccc4c3Br)nc3ccccc32)c1 5,186.72 L/h/kg

Next, consider the following compound.
Which CLint_u (L/h/kg) Human reading was recorded for the compound O=C(COc1ccc2ccccc2c1Br)NCCc1nc2cc(Cl)ccc2[nH]1 ? 2,122.45 L/h/kg
